# tested on: canine TRPM8 (Canis lupus familiaris, UniProt Q1A7N1)
# Construct: expressed in transfected cells
# Sequence (Q1A7N1 1-1104): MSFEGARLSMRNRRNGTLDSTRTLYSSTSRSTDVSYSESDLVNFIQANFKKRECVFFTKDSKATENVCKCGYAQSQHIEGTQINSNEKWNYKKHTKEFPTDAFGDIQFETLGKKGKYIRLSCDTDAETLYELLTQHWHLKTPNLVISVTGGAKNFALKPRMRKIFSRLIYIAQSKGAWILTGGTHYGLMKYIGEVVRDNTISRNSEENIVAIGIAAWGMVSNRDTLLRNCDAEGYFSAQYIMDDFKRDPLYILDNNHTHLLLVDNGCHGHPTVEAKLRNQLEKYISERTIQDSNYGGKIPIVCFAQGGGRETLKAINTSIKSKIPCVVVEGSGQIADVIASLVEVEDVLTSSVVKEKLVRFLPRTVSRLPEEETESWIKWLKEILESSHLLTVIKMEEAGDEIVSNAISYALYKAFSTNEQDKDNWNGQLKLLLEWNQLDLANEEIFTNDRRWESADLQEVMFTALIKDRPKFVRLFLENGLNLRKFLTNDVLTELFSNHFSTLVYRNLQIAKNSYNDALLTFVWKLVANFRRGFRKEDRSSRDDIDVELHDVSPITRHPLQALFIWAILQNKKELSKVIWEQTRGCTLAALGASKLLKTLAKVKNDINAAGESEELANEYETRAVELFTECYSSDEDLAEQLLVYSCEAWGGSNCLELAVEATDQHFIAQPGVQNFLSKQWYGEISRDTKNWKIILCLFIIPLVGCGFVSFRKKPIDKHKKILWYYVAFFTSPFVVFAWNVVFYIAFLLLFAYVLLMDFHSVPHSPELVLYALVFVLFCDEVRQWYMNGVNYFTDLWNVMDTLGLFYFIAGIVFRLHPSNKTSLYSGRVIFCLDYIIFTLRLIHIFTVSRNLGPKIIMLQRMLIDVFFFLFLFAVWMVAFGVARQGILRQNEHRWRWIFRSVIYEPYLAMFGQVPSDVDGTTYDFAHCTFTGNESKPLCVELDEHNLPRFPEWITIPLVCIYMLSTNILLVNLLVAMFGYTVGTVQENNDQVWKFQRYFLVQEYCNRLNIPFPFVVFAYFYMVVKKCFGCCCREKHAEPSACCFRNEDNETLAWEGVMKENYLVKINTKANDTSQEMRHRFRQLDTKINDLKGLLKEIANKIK
# run description: In Vitro Canine TRPM8 Functional Assay (Ca2+ fluorescence, icilin activation)
# Assay type: cell-based
# conditions: HEK293, 0.2 μM compound; canine TRPM8 HEK293; icilin
metric: inhibition at 0.2 µM (%)
// return numeric value only (unit: %, not printed)

The examples below pair each entry with its known result.
O=C(C(c1ccc(C(F)(F)F)cc1)N1CCCc2ccccc21)N1Cc2ccccc2C1 (stereo not shown) = 72
O=C(C(Nc1ccccc1F)c1ccc(C(F)(F)F)cc1)N1CCC[C@H]1c1cccc(F)c1 (mixture of isomers) = 98
O=C(C(Nc1ccccc1F)c1ccc(C(F)(F)F)cc1)N1Cc2ccccc2C1 (stereo not shown) = 100
O=C(N1CCCC1c1ccccc1)C1(c2ccc(C(F)(F)F)cc2)CCc2ccccc2N1 (stereo not shown) = 70
COC(=O)C1CCC(c2ccccc2)N1C(=O)C(Nc1ccccc1F)c1ccc(Br)cc1 (single isomer, unassigned) = 101
O=C(C(Nc1ccccc1F)c1ccc(Br)cc1)N1CCCC1c1ccccc1F (single isomer, unassigned) = 97

query: Report measured inhibition at 0.2 µM on canine TRPM8 (Canis lupus familiaris, UniProt Q1A7N1); entry: CN(C)c1ccc(C2CCCN2C(=O)C(Nc2ccccc2F)c2ccc(C(F)(F)F)cc2)cc1 (stereo not shown)
result: 100

query: Specify inhibition at 0.2 µM for COC(=O)C1CCC(c2ccccc2)N1C(=O)C(Nc1c(F)cccc1F)c1ccc(Br)cc1 (stereo not shown) , system canine TRPM8 (Canis lupus familiaris, UniProt Q1A7N1).
result: 99

query: GET inhibition at 0.2 µM | system: canine TRPM8 (Canis lupus familiaris, UniProt Q1A7N1) | item: COc1ccccc1C1CCCN1C(=O)C(Nc1ccccc1F)c1cnc2ccccc2c1 (single isomer, unassigned)
result: 101

query: State measured inhibition at 0.2 µM of the compound CCOC(=O)c1ccc(C(Nc2ccccc2F)C(=O)N2CCCC2c2ccccc2F)cc1 (stereo not shown) with canine TRPM8 (Canis lupus familiaris, UniProt Q1A7N1).
result: 92

query: State measured inhibition at 0.2 µM of the compound CN(C)c1ccc(C2CCCN2C(=O)C(Nc2ccccc2F)c2ccc(Cl)cc2)cc1 (stereo not shown) with canine TRPM8 (Canis lupus familiaris, UniProt Q1A7N1).
result: 96

query: With canine TRPM8 (Canis lupus familiaris, UniProt Q1A7N1) as the test system, provide measured inhibition at 0.2 µM for this compound: O=C(O)c1cccc(C2CCCN2C(=O)C(Nc2ccccc2F)c2cc3ccccc3s2)c1 (stereo not shown)
result: 97

query: Please indicate recorded inhibition at 0.2 µM of CCOC(=O)c1ccc(C(Nc2c(F)cccc2F)C(=O)N2CCC[C@H]2c2ccccc2F)cc1 (stereo partly shown) measured with canine TRPM8 (Canis lupus familiaris, UniProt Q1A7N1).
result: 99

query: Retrieve inhibition at 0.2 µM on canine TRPM8 (Canis lupus familiaris, UniProt Q1A7N1); query O=C(C(Nc1ccccc1F)c1ccc(C(F)(F)F)cc1)N1CCCC1c1ccccc1 (single isomer, unassigned)
result: 89

query: Give inhibition at 0.2 µM; test system canine TRPM8 (Canis lupus familiaris, UniProt Q1A7N1); compound CC(C)(C)c1ccc(C(Nc2ccccc2F)C(=O)N2CCC[C@H]2c2ccccc2F)cn1 (single isomer, unassigned) [Cpd 357]
result: 100

query: Report inhibition at 0.2 µM under test system canine TRPM8 (Canis lupus familiaris, UniProt Q1A7N1) for O=C(C(Nc1ccccc1F)c1ccc(-c2ccncc2)cc1)N1CCCC1c1ccccc1F (stereo not shown) .
result: 92

* * *

# tested on: canine TRPM8 (Canis lupus familiaris, UniProt Q1A7N1)
# Construct: expressed in transfected cells
# run description: In Vitro Canine TRPM8 Functional Assay (Ca2+ fluorescence, icilin activation)
# Assay type: cell-based
# conditions: 0.2 μM compound; canine TRPM8 HEK293; icilin; 0.2 µM
Listed here are molecules together with their documented % Inh @ 0.2 μM.
Please don't drop the unit; write it after the number.

Reference set (3 entries):
COc1ccccc1C1CCCN1C(=O)C(Nc1ccccc1F)c1ccc(Br)cc1 (single isomer, unassigned) [Cpd 176] = 94%
O=C(C(Nc1ccccc1F)c1ccc2cccnc2c1)N1CCCC1c1ccccc1F (stereo not drawn) [Cpd 284] = 95%
O=C(C(Nc1ccccc1F)c1ccc(N2CCOCC2)nc1)N1CCCC1c1ccccc1F (single isomer, unassigned) [Cpd 360] = 43%

query: Let me know recorded % Inh @ 0.2 μM for O=C(C(Nc1ccccc1F)c1ccc(C(F)(F)F)cc1)N1CCCC1c1ccccc1 (single isomer, unassigned) [Cpd 191] , thanks.
result: 100%

query: Please look at this molecule and report its % Inh @ 0.2 μM: O=C(C(Nc1ccccc1F)c1cncc2ccccc12)N1CCCC1c1ccccc1F (single isomer, unassigned) [Cpd 333]
result: 62%

query: Respond only with % Inh @ 0.2 μM recorded for COC(=O)C1CCC(c2ccccc2)N1C(=O)C(Nc1ccccc1F)c1ccc(Br)cc1 (single isomer, unassigned) [Cpd 209]
result: 94%

query: Give me measured % Inh @ 0.2 μM, please, for this molecule: O=C(C(Nc1ccccc1F)c1ccc(-c2ccncc2)cc1)N1CCCC1c1ccccc1F (stereo not drawn) [Cpd 294]
result: 102%

query: State, in one line, measured % Inh @ 0.2 μM of O=C(C(Nc1ccccc1F)c1ccc(-c2cccnc2)cc1)N1CCCC1c1ccccc1F (stereo not drawn) [Cpd 285]
result: 96%

query: Determine its reported % Inh @ 0.2 μM: COC(=O)[C@@H]1CC[C@H](c2ccccc2)N1C(=O)C(Nc1c(F)cccc1F)c1ccc(Br)cc1 (single isomer, unassigned) [Cpd 205]
result: 62%

query: Fill in % Inh @ 0.2 μM for record O=C(C(Nc1ccccc1F)c1cnc2ccccc2c1)N1CCC[C@H]1c1ccccc1F (single isomer, unassigned) [Cpd 280]
result: 101%

query: Give reported % Inh @ 0.2 μM value for O=C(C(Nc1ccccc1)c1ccccn1)N1CCCC1c1ccccc1F (racemic) [Cpd 218]
result: 49%

* * *

# tested on: canine TRPM8 (Canis lupus familiaris, UniProt Q1A7N1)
# run description: In Vitro Canine TRPM8 Functional Assay (Ca2+ fluorescence, icilin activation)
# conditions: HEK293 cells stably expressing canine TRPM8; icilin activation; Ca2+ fluorescence
Measured pIC50, listed per entry.
On this scale, pIC50 is minus log10 of a concentration expressed in M (mol/L).

O=C(C(Nc1ccc(F)cc1)c1ccc(C(F)(F)F)cc1)N1Cc2ccccc2C1 (centres unmarked) = 7.08

query: Tell me pIC50 reported for O=C(N1CCCC1c1ccccc1)C1(c2ccc(C(F)(F)F)cc2)CCc2ccccc2N1 (centres unmarked)
result: 6.80

query: Please give measured pIC50 of the following entry: O=C(C(Nc1ccccc1F)c1ccc(C(F)(F)F)cc1)N1CCCC1c1ccccc1 (racemic) [Cpd 69]
result: 8.30

query: Return pIC50 for the following compound: O=C(C(Nc1ccccc1F)c1cc2ccccc2s1)N1Cc2cccnc2C1 (centres unmarked)
result: 6.92

query: Give reported pIC50 value for O=C(C(Nc1ccccc1)c1ccc(C(F)(F)F)cc1)N1CCCC1c1ccccc1F (single isomer, unassigned) [Cpd 45]
result: 6.98

query: Output pIC50 of CC(C)(C)c1ccc(C(Nc2ccccc2)C(=O)N2CCCCC2c2ccccc2)cc1 (centres unmarked)
result: 6.77

query: Note pIC50 for the compound shown: O=C(C(Nc1ccccc1F)c1ccc(C(F)(F)F)cc1)N1CCCC1c1cccc(F)c1 (single isomer, unassigned) [Cpd 187]
result: 8.40

query: Identify the reported pIC50 for the following entry. COc1ccccc1[C@@H]1CCCN1C(=O)C(Nc1ccccc1F)c1ccc(N2CCCCC2)nc1 (mixture of isomers)
result: 7.59

* * *

# tested on: canine TRPM8 (Canis lupus familiaris, UniProt Q1A7N1)
# Construct: expressed in transfected cells
# run description: In Vitro Canine TRPM8 Functional Assay (Ca2+ fluorescence, icilin activation)
# Type: cell-based
# conditions: HEK293 cells stably expressing canine TRPM8; icilin activation; Ca2+ fluorescence
Reported pIC50 values follow for various compounds
In simple prose, pIC50 is minus the logarithm base ten of a concentration in moles per litre.

Examples with answers:
O=C(C(Cc1ccccc1F)c1ccc(C(F)(F)F)cc1)N1CCCC1c1ccccc1F (centres unmarked) [Cpd 201] = 7.49
COc1ccccc1C1CCCN1C(=O)C(Nc1cccc(F)c1)c1ccc(C(F)(F)F)cc1 (centres unmarked) [Cpd 79] = 7.30
O=C(C(Nc1ccccc1)c1cnc2ccccc2c1)N1CCCC1c1ccccc1F (centres unmarked) [Cpd 264] = 7.37

query: Note down pIC50 recorded for O=C(C(Nc1ccccc1)c1ccc(C(F)(F)F)cc1)N1CCCC1c1ccccc1Cl (single isomer, unassigned) [Cpd 60]
result: 7.38

query: Report pIC50 for O=C(C(Nc1ccccc1)c1ccc(C(F)(F)F)cc1)N1CCCC1c1cccs1 (centres unmarked) [Cpd 24]
result: 7.83

query: Give the reported value of pIC50 for this record: O=C(C(Nc1ccccc1F)c1ccc(Cl)cc1)N1CCCc2ccccc21 (centres unmarked) [Cpd 364]
result: 7.44
